Please provide measured GI50 for the entries that follow.
system: NCI-H522 lung; experiment: NCI tumour cell line growth inhibition, 48 h

query: What GI50 value was documented for this molecule, COc1ccc(CN2c3ccccc3CCc3ccccc32)cc1F ?
result: 609 nM

query: Any idea what GI50 was measured for COC(=O)CCCCCN=Cc1c(O)c(O)c(C(C)C)c2cc(C)c(-c3c(C)cc4c(C(C)C)c(O)c(O)c(C=NCCCCCC(=O)OC)c4c3O)c(O)c12 ?
result: 968 nM

query: // GI50 lookup, key: O=[N+]([O-])c1ccc2c(c1)[O][Sn][O]2
result: 4.23 µg/mL

query: What does the data say about its GI50? Entry: FCc1ncc(-c2ccc(C(F)(F)F)cc2)c(NC2CCCCCC2)n1
result: > 10000 nM

query: What measured GI50 goes with CN(C)C(=O)O[C@@H]1CN[C@@H](C#Cc2cc3ncnc(Nc4ccc(OCc5cccc(F)c5)c(Cl)c4)c3s2)C1 ?
result: 2140 nM

query: Query (molecule): COc1ccc(-c2cn[nH]c2-c2cc(OC)c3c(c2)OCCO3)cc1 ; field requested: GI50
result: 24.3 nM

query: Name the reported GI50 value associated with the molecule COc1cc(S(C)(=O)=O)ccc1Nc1nc2ccc(-c3ccc(NC(=O)[C@H](C)c4ccc(F)cc4)cc3)cn2n1
result: > 100000 nM

query: Field request: GI50 | item: COc1cc(Cn2c(-c3nonc3N)nc3ccccc32)ccc1C
result: 243 nM

query: Looking for the measured GI50 of COc1ccc(Cn2c(Cl)c(/C=C3/C(=O)Nc4ccccc43)c3cc(OC)c(C)cc32)cc1 , can you help?
result: 4770 nM

query: Fill in the blank: the reported GI50 of CC(C)(C)NC(=O)[C@H]1C[C@H]2CCCC[C@H]2CN1C[C@@H](O)[C@H](Cc1ccccc1)NC(=O)[C@H](CC(N)=O)NC(=O)c1ccc2ccccc2n1 is ____.
result: 15600 nM

query: What does the data say about its GI50? Entry: CSc1ccc(/C=C2\C=C(CC(=O)NCc3ccc(C(=O)c4ccccc4)cc3)c3cc(F)ccc32)cc1
result: 28.7 nM

query: Given COc1ccc(C(=O)N2c3ccccc3Sc3ccccc32)c(C(F)(F)F)c1 , state its recorded GI50.
result: 320 nM

query: Give its GI50 value. Item: N#C[C@@H]1C(n2ccc(N)nc2=O)O[C@H](CO)[C@H]1O (some centres undefined)
result: 4240 nM

query: Sample Cc1cc(N/N=C/c2nc(-c3ccc(Cl)cc3)oc2C)c2cc(Cl)ccc2n1 — what was its GI50?
result: 1890 nM
